Assay: Metabolic (microsomal) stability assay, human liver microsomes (HLM)
Format: in vitro ADME
Details: predicted clearance as percent of liver blood flow, 1 μM
List of HLM QH values.

For orientation, consider the following solved cases.
Substance smiles	Recorded result
C[C@H](Oc1cc(-c2cn(C3CCOCC3)nn2)nc(-c2noc3c2CCC[C@@]32CCCc3sc(N)c(C#N)c32)n1)[C@@H]1CCCN1C	<24%
Cc1ccc(-c2cc(O[C@@H](C)[C@@H]3CCCN3C)nc(-c3onc4c3CCC[C@@]43CCCc4sc(N)c(C#N)c43)n2)cn1	<24%

Using the record for C[C@H](Oc1cc(-n2ccc(-c3ccccn3)n2)nc(-c2noc3c2CCC[C@@]32CCCc3sc(N)c(C#N)c32)n1)[C@@H]1CCCN1C , state its measured HLM QH.
<24%

This collection of values is drawn from patent US20240174690A1.
